- target: UniProt Q92633
- assay.protocol: LPA1 functional antagonist assay (calcium flux)
- experimental.parameters: CHO cells overexpressing human LPA1; inhibition of calcium flux induced by 10 nM LPA; read-out: hLPA1 IC50
measurement.name: IC50 (nM)
Record the value in nM, omitting the unit from your answer.

Cc1nc(-c2nnn(C)c2CNc2nccc(CC(C)C)n2)ccc1O[C@H]1CCC[C@H](C(=O)O)C1 [Example 126]; 22

Could you tell me which IC50 is on file for Cc1nc(-c2nnn(C)c2CNc2ccnc(OC(C)C)n2)ccc1O[C@H]1CCC[C@H](C(=O)O)C1 [Example 25] ?
145

Could you tell me which IC50 is on file for Cc1nc(-c2nnn(C)c2CNc2nccc(NCCC3CC3)n2)ccc1O[C@H]1CCC[C@H](C(=O)O)C1 [Example 50] ?
243

Could you tell me which IC50 is on file for Cc1nc(-c2nnn(C)c2CNc2nccc(C3CC(F)(F)C3)n2)ccc1O[C@H]1CCC[C@H](C(=O)O)C1 [Example 160] ?
17

###

- target: human LPA1 (Homo sapiens, UniProt Q92633)
- Sequence (Q92633 whole entry): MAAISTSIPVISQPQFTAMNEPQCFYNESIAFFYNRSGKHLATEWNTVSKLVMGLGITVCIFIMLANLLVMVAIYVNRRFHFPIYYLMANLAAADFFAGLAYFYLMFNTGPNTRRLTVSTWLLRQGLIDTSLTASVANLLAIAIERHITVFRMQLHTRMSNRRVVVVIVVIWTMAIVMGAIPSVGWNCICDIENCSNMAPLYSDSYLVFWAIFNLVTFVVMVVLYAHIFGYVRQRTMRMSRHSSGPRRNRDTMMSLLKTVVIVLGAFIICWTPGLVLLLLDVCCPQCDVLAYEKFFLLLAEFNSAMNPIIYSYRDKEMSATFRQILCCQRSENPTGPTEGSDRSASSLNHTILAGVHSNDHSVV
- assay.protocol: LPA1 functional antagonist assay (calcium flux)
- experimental.parameters: CHO cells overexpressing human LPA1; inhibition of calcium flux induced by 10 nM LPA; read-out: hLPA1 IC50
Where a name gives a salt, the structure may show the parent alone.
Reported IC50 values follow for various compounds
Your reply should be a number followed by the unit it is expressed in.

CCCc1cncc(NCc2c(-c3ccc(O[C@H]4CCC[C@H](C(=O)O)C4)c(C)n3)nnn2C)n1; 94 nM
CCCCc1cncc(NCc2c(-c3ccc(O[C@H]4CCC[C@H](C(=O)O)C4)c(C)n3)nnn2C)n1; 12 nM
Cc1nc(-c2nnn(C)c2CNc2ncnc(N3CCCC3)n2)ccc1O[C@H]1CCC[C@H](C(=O)O)C1; 319 nM
Cc1nc(-c2nnn(C)c2CNc2cc(OC3CCC3)cnn2)ccc1O[C@H]1CCC[C@H](C(=O)O)C1 [Example 190, bis TFA Salt]; 187 nM

Could you tell me which IC50 is on file for Cc1nc(-c2nnn(C)c2CNc2ncc(C#N)c(C(C)(C)C)n2)ccc1O[C@H]1CCC[C@H](C(=O)O)C1 ?
177 nM

Could you tell me which IC50 is on file for Cc1nc(-c2nnn(C)c2CN(C)c2nccc(OCC(C)F)n2)ccc1O[C@H]1CCC[C@H](C(=O)O)C1 (stereo partly shown) ?
45 nM

Could you tell me which IC50 is on file for COCCOc1ccnc(NCc2c(-c3ccc(O[C@H]4CCC[C@H](C(=O)O)C4)c(C)n3)nnn2C)n1 ?
122 nM

###

Reported IC50 values follow for various compounds
- target: human LPA1 (Homo sapiens, UniProt Q92633)
- assay.protocol: LPA1 functional antagonist assay (calcium flux)
- experimental.parameters: CHO cells overexpressing human LPA1; inhibition of calcium flux induced by 10 nM LPA; read-out: hLPA1 IC50
- Protocol: The effectiveness of compounds of the present invention as LPA1 inhibitors can be determined in an LPA1 functional antagonist assay as follows: Chinese hamster ovary cells overexpressing human LPA1 were plated overnight (15,000 cells/well) in poly-D-lysine coated 384-well microplates (Greiner bio-one, Cat #781946) in DMEM/F12 medium (Gibco, Cat #11039). […] IC50 values were determined by fitting data to a 4-parameter logistic equation (GraphPad Prism, San Diego Calif.).
Record the value in nM, omitting the unit from your answer.

Cn1nnc(-c2ccc(O[C@H]3CCC[C@H](C(=O)O)C3)cn2)c1COc1nccc(C(F)(F)F)n1 [Example 404]; 173
Cc1nc(-c2nnn(C)c2CNc2ncnc(CCC(C)C)n2)ccc1O[C@H]1CCC[C@H](C(=O)O)C1 [Example 205]; 40
Cc1cnc(NCc2c(-c3ccc(O[C@H]4CCC[C@H](C(=O)O)C4)cn3)nnn2C)nc1-c1ccccn1 [Example 30]; 300
COc1cc(OC)nc(NCc2c(-c3ccc(O[C@H]4CCC[C@H](C(=O)O)C4)c(C)n3)nnn2C)n1 [Example 172]; 61
Cc1nc(-c2nnn(C)c2CNc2nccc(NCCc3ccc(F)cc3)n2)ccc1O[C@H]1CCC[C@H](C(=O)O)C1 [Example 62]; 63

Lab request: please report IC50 under test system human LPA1 (Homo sapiens, UniProt Q92633) for Cc1nc(-c2nnn(C)c2COc2nccc(-c3ccccc3)n2)ccc1O[C@H]1CCC[C@H](C(=O)O)C1 [Example 330]
33

Lab request: please report IC50 under test system human LPA1 (Homo sapiens, UniProt Q92633) for Cc1nc(-c2nnn(C)c2COc2nccc(COC(C)C)n2)ccc1O[C@H]1CCC[C@H](C(=O)O)C1 [Example 320]
90
